# Method Notes: Acute Toxicity (7-day, single application per os)
# Setup Conditions: in vivo, po, single application p.o., NMRI mouse on an empty stomach
Assay Endpoint: LD50 at 168 h

[
  {
    "Compound": "COCC1CN=C(c2ccccc2Cl)c2cc(Br)ccc2N1 (stereo not shown)",
    "Result": "1330 mg/kg"
  },
  {
    "Compound": "OCC1CN=C(c2ccccc2Cl)c2cc(Br)ccc2N1 (stereo not shown)",
    "Result": "> 1370 mg/kg"
  },
  {
    "Compound": "CN1c2ccc(Br)cc2C(c2ccccc2Cl)=NCC1CO (stereo not shown)",
    "Result": "> 1470 mg/kg"
  }
]

We next turn to a different compound, shown below.
Short answer for COCC1CN=C(c2ccccc2Cl)c2cc(Br)ccc2N1C (stereo not shown) : LD50 at 168 h was > 1470 mg/kg

###

The entries below come with measured selectivity ratio values attached.
# Method Notes: Rotating rod test (muscular coordination impairing activity)
# Setup Conditions: mouse, in vivo, po
Reply with just the number.

Sample answers from the record:
[
  {
    "Compound": "CN1c2ccc(Br)cc2C(c2ccccc2Cl)=NCC1CO (stereo not shown)",
    "Assay Endpoint": "selectivity ratio",
    "Numeric Value": 1.3
  },
  {
    "Compound": "OCC1CN=C(c2ccccc2Cl)c2cc(Br)ccc2N1 (stereo not shown)",
    "Assay Endpoint": "selectivity ratio",
    "Numeric Value": 8.6
  },
  {
    "Compound": "COCC1CN=C(c2ccccc2Cl)c2cc(Br)ccc2N1 (stereo not shown)",
    "Assay Endpoint": "selectivity ratio",
    "Numeric Value": 5.38
  }
]

Short answer for COCC1CN=C(c2ccccc2Cl)c2cc(Br)ccc2N1C (stereo not shown) : selectivity ratio was 1.11

###

The entries below come with measured selectivity ratio values attached.
# Method Notes: Traction test (muscle relaxant activity / disturbance of muscle tone)
# Setup Conditions: mouse, in vivo, po
# Method: In this test the influence of the test substances on the muscle tone is evaluated. The test substance is administered orally to mice. After 120 minutes the mice are suspended by their front paws on a thin, horizontally taut wire. The dose at which exactly half the animals fail to also grasp the wire with their hind paws within 5 seconds is regarded as the ED50. […]
Reply with just the number.

Sample answers from the record:
[
  {
    "Compound": "OCC1CN=C(c2ccccc2Cl)c2cc(Br)ccc2N1 (stereo not shown) [Ex 4]",
    "selectivity ratio": 164
  },
  {
    "Compound": "CN1c2ccc(Br)cc2C(c2ccccc2Cl)=NCC1CO (stereo not shown)",
    "selectivity ratio": 38.8
  },
  {
    "Compound": "COCC1CN=C(c2ccccc2Cl)c2cc(Br)ccc2N1C (stereo not shown)",
    "selectivity ratio": 7.38
  }
]

We next turn to a different compound, shown below.
Short answer for COCC1CN=C(c2ccccc2Cl)c2cc(Br)ccc2N1 (stereo not shown) [Ex 2] : selectivity ratio was 54.2

Sourced from patent US4505908A
